I'd be grateful if you could share measured inhibition for these entries.
- system: Polyunsaturated fatty acid 5-lipoxygenase (Homo sapiens) (UniProt P09917)
- measurement.description: Inhibition of 5-lipoxygenase was evaluated in human polymorphonuclear leukocytes stimulated by calcium ionophore A-23187 for formation of 5-HETE at 10 uM
- Assay type: cell-based

State its inhibition for this molecule: CCCCC/C=C\C\C=C/C=C/C=C/C(O)CC/C=N\O (centres undefined)
95%

Please look at this molecule and report its inhibition: CCCCC/C=C\C/C=C\C=C\C(O)CCC/C=N/O (centres undefined)
< 40%

Please report the measured inhibition for CCCCC/C=C\C\C=C/C=C/C=C/C(O)CCC/C=N/OC (centres undefined)
95%

Retrieve inhibition measured for CCCCC/C=C\C\C=C/C=C/C=C/C(O)CCCCC (centres undefined) and print it.
95%

====

- system: Polyunsaturated fatty acid 5-lipoxygenase (Homo sapiens) (UniProt P09917)
- measurement.description: Inhibition of 5-lipoxygenase was evaluated in human polymorphonuclear leukocytes stimulated by calcium ionophore A-23187 for formation of LTB4 at 10 uM
- Format: cell-based
value.kind: inhibition (%)
Numbers only here, please. The scale is %.

Please report the measured inhibition for CCCCC/C=C\C/C=C\C=C\C(O)CCC/C=N/O (centres undefined) tested on Polyunsaturated fatty acid 5-lipoxygenase (Homo sapiens) (UniProt P09917).
60

# lookup: Polyunsaturated fatty acid 5-lipoxygenase (Homo sapiens) (UniProt P09917) inhibition, key = CCCCC/C=C\C\C=C/C=C/C=C/C(O)CCC/C=N/OC (centres undefined)
95

Report value: inhibition, system: Polyunsaturated fatty acid 5-lipoxygenase (Homo sapiens) (UniProt P09917), molecule: CCCCC/C=C\C\C=C/C=C/C=C/C(O)CCCCC (centres undefined)
95

For Polyunsaturated fatty acid 5-lipoxygenase (Homo sapiens) (UniProt P09917), give the measured inhibition of the entry CCCCC/C=C\C\C=C/C=C/C=C/C(O)CC/C=N\O (centres undefined)
95

====

Field: pIC50. Provide a value for each of the molecules that follow.
- system: Polyunsaturated fatty acid 5-lipoxygenase (Homo sapiens, UniProt P09917)
- measurement.description: Inhibition of 5-lipoxygenase was evaluated in human polymorphonuclear leukocytes stimulated by calcium ionophore A-23187 for formation of 5-HETE
- Assay type: cell-based
Units for pIC50: none; it is -log10 of a concentration expressed in mol/L.

Provide one value: measured pIC50 of CCCCC/C=C\C\C=C/C=C/C=C/C(O)CCC/C=N/O (racemic)
5.27

Kindly indicate its recorded pIC50. Item: `CCCCC/C=C\C\C=C/C=C/C=C/[C@H](O)CCC/C=N/O`
5.55

====

Kindly supply the reported IC50 values for the records listed here.
- system: Polyunsaturated fatty acid 5-lipoxygenase (Homo sapiens, UniProt P09917)
- Sequence (P09917 whole entry): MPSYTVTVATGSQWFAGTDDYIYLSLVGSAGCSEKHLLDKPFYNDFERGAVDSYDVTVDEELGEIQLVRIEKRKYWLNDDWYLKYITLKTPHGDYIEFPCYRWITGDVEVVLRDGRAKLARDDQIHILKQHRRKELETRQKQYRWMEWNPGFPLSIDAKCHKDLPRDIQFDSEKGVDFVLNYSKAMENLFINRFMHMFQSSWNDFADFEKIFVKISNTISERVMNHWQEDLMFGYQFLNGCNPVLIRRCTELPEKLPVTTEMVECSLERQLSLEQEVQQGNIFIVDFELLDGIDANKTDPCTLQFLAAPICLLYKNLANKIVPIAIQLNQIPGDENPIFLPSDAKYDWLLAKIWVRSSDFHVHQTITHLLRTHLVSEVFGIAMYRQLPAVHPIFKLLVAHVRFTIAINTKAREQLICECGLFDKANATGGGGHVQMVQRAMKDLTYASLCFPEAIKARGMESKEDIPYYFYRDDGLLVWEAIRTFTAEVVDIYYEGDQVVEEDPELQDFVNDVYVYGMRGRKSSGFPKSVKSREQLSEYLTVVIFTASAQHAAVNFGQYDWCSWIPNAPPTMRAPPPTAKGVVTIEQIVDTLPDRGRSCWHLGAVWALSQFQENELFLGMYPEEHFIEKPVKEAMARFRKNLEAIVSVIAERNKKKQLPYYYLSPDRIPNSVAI
- measurement.description: Inhibition of 5-lipoxygenase was evaluated in human polymorphonuclear leukocytes stimulated by calcium ionophore A-23187 for formation of LTB4
- Format: cell-based
Quick reminder: number only, in µM, skip the unit.

Quick one: give measured IC50 for `CCCCC/C=C\C\C=C/C=C/C=C/[C@H](O)CCC/C=N/O`
3.3

Determine its reported IC50: CCCCC/C=C\C\C=C/C=C/C=C/C(O)CCC/C=N/O (racemic)
4.4
